Biological target: recombinant human VEGFR-2 (Homo sapiens, UniProt P35968)
Sequence (P35968 20-1356): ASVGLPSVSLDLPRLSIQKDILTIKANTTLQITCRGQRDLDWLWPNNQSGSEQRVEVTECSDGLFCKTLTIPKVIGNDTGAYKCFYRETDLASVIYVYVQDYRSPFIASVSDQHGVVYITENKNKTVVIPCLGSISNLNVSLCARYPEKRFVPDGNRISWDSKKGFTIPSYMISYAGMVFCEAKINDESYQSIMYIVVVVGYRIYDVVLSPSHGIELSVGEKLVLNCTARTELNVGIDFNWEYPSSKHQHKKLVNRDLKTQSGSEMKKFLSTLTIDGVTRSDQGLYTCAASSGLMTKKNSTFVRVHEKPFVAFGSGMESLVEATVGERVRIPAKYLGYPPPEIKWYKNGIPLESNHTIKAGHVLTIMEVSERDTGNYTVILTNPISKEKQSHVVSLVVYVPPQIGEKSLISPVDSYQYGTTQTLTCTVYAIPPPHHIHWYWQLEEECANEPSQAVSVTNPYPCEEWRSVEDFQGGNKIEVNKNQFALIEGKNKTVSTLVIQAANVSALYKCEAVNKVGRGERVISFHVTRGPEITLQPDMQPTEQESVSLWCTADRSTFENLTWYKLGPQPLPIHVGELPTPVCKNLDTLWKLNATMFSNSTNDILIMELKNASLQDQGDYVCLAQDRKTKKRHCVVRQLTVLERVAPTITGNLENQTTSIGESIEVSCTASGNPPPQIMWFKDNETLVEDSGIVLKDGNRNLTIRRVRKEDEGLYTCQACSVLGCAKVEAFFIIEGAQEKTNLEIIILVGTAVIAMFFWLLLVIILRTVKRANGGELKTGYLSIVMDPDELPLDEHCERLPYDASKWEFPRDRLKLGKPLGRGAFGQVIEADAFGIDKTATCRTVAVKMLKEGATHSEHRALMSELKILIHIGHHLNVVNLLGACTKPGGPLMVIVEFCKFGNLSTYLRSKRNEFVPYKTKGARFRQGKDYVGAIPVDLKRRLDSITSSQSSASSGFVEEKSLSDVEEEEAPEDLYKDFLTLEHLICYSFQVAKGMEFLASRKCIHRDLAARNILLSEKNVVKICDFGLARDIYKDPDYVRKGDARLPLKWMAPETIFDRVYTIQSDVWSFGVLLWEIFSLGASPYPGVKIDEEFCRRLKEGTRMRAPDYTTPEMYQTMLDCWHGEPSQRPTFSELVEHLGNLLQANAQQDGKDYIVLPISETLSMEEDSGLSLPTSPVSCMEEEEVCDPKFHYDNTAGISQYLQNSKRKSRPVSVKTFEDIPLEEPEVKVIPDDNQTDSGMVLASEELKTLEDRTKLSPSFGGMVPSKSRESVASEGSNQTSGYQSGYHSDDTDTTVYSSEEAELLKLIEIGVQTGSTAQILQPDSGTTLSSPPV
Test: SPR binding affinity to immobilized VEGFR-2
Ends that are not written are not given here.
reportedProperty: pKd
Answers are plain numbers, as −log10 of the molar value.

Entry ATWLPPRC [AT7] has what pKd?
6.55
